# Format: in vivo, human
# Test Parameters: human, serum, inhaled, tmax, des-CIC, similar for all treatments
Endpoint Label: Tmax (min)
# unit: min | format: bare number

Returns the measured Tmax for the input compound. Input: C[C@]12C=CC(=O)C=C1CC[C@@H]1[C@@H]2[C@@H](O)C[C@@]2(C)[C@H]1C[C@H]1O[C@@H](C3CCCCC3)O[C@]12C(=O)CO [des-CIC, desisobutyryl-ciclesonide] 42

* * *

# Format: in vivo, human
# Test Parameters: human, serum, inhaled, 160 ug, AUCτ, des-CIC in serum, Day 7, τ 24 h, Treatment C 160 μg CIC no spacer, mean ± SEM, N 29
Endpoint Label: AUC (ng·h/mL)
# unit: ng·h/mL | format: bare number

Returns the measured AUC for the input compound. Input: C[C@]12C=CC(=O)C=C1CC[C@@H]1[C@@H]2[C@@H](O)C[C@@]2(C)[C@H]1C[C@H]1O[C@@H](C3CCCCC3)O[C@]12C(=O)CO [des-CIC, desisobutyryl-ciclesonide] 0.542
